Quick reference: pIC50 of the listed items.
# SYSTEM UNDER TEST: OAT1 (Homo sapiens, UniProt Q4U2R8)
# PROCEDURE TEXT: Fluorescein inhibition assay in ciPTEC-OAT1 flat monolayers
# RUN CONDITIONS: read-out: ciPTEC-OAT1 IC50 (inhibition of fluorescein uptake); 1 μM fluorescein, 10 min, 37°C, flat monolayers; mean ± S.E.M.
To interpret pIC50, take it as minus log10 of a concentration measured in moles per litre.

{"COMPOUND": "Cc1ccc(O[C@@H]2O[C@H](C(=O)O)[C@@H](O)[C@H](O)[C@H]2O)cc1 [p-Cresylglucuronide]", "pIC50": 2.58}

Supply reported pIC50 belonging to this compound: Cc1ccc(OS(=O)(=O)O)cc1 [p-Cresylsulfate]
4.10

###

# SYSTEM UNDER TEST: OAT3 (Homo sapiens, UniProt Q8TCC7)
# Sequence (Q8TCC7 whole entry): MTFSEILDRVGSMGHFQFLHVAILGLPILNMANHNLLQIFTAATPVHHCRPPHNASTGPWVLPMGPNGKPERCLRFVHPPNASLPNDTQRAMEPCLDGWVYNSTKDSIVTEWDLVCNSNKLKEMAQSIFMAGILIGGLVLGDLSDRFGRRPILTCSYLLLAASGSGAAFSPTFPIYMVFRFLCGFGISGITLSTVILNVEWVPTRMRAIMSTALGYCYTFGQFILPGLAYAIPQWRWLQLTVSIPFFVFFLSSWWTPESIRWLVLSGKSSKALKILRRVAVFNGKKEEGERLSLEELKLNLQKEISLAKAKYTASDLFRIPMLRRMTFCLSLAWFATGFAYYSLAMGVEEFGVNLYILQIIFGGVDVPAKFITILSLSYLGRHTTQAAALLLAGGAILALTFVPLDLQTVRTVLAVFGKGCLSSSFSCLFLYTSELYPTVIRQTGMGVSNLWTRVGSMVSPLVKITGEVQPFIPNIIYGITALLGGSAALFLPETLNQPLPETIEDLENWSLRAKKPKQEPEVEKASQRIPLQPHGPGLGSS
# PROCEDURE TEXT: Fluorescein inhibition assay in ciPTEC-OAT3 flat monolayers
MEASURE NAME: IC50 (µM)
API: value field is a number in µM; no unit string.

{"MOLECULE": "O=C(O)[C@H]1O[C@@H](Oc2c[nH]c3ccccc23)[C@H](O)[C@@H](O)[C@@H]1O [Indoxyl-β-glucuronide]", "IC50 [µM]": 527}
{"MOLECULE": "Nc1ccccc1C(=O)C[C@H](N)C(=O)O", "IC50 [µM]": 219}
{"MOLECULE": "O=C(O)c1cc(=O)c2ccccc2[nH]1", "IC50 [µM]": 6}
{"MOLECULE": "O=C(O)CNC(=O)c1ccccc1", "IC50 [µM]": 22}

# next molecule below
Tell me its IC50 given `O=C(O)Cc1c[nH]c2ccccc12` as the entry.
148

###

# SYSTEM UNDER TEST: OAT3 (Homo sapiens, UniProt Q8TCC7)
# PROCEDURE TEXT: Fluorescein inhibition assay in ciPTEC-OAT3 flat monolayers
# RUN CONDITIONS: read-out: ciPTEC-OAT3 IC50 (inhibition of fluorescein uptake); 1 μM fluorescein, 10 min, 37°C, flat monolayers; mean ± S.E.M.
MEASURE NAME: IC50 (µM)
Just the number please, in µM, no unit attached.

{"MOLECULE": "Cc1ccc(OS(=O)(=O)O)cc1 [p-Cresylsulfate]", "UNIT TEXT": "µM", "IC50": 112}

Now, please, on to the next molecule.
Provide OAT3 (Homo sapiens, UniProt Q8TCC7) IC50 reading for Cc1ccc(O[C@@H]2O[C@H](C(=O)O)[C@@H](O)[C@H](O)[C@H]2O)cc1 [p-Cresylglucuronide] .
588

###

# SYSTEM UNDER TEST: OAT1 (Homo sapiens, UniProt Q4U2R8)
# Sequence (Q4U2R8 1-563): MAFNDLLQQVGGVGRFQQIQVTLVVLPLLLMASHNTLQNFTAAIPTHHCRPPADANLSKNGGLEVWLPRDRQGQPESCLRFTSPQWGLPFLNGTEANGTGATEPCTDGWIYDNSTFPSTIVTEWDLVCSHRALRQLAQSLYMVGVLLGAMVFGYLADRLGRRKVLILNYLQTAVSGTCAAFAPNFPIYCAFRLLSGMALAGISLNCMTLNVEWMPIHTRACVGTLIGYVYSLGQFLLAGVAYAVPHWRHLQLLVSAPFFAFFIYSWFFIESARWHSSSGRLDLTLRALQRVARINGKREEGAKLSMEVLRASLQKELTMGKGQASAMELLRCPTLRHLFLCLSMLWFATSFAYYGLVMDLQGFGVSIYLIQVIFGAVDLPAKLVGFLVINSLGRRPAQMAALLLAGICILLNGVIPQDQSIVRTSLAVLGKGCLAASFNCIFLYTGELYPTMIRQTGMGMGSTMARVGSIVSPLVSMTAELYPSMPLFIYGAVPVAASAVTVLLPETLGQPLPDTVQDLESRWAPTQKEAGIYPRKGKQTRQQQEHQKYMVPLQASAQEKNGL
# PROCEDURE TEXT: Fluorescein inhibition assay in ciPTEC-OAT1 flat monolayers
Documented IC50 across a set of compounds
Please respond with the number in µM and leave the unit unwritten.

In the examples that follow, each entry is paired with its recorded IC50.
{"COMPOUND": "Nc1ccccc1C(=O)C[C@H](N)C(=O)O [L-Kynurenine]", "SYSTEM UNDER TEST": "OAT1 (Homo sapiens, UniProt Q4U2R8)", "IC50, µM": 65}
{"COMPOUND": "O=C(O)c1cc(=O)c2ccccc2[nH]1 [Kynurenic acid]", "SYSTEM UNDER TEST": "OAT1 (Homo sapiens, UniProt Q4U2R8)", "IC50, µM": 6}
{"COMPOUND": "O=C(O)Cc1c[nH]c2ccccc12 [Indole-3-acetic acid]", "SYSTEM UNDER TEST": "OAT1 (Homo sapiens, UniProt Q4U2R8)", "IC50, µM": 19}

Proceeding to the next compound to report its IC50.
Output measured IC50 for this item: O=C(O)[C@H]1O[C@@H](Oc2c[nH]c3ccccc23)[C@H](O)[C@@H](O)[C@@H]1O [Indoxyl-β-glucuronide]
492
